target: Human plasma kallikrein (Homo sapiens (Human)); assay: Plasma Kallikrein Assay; details: purified Human plasma kallikrein 0.5 nM, substrate Acetyl-K-P-R-AFC, pH 7.4; read-out: PKal IC50
Sequence (P03952 391-638 limits assumed): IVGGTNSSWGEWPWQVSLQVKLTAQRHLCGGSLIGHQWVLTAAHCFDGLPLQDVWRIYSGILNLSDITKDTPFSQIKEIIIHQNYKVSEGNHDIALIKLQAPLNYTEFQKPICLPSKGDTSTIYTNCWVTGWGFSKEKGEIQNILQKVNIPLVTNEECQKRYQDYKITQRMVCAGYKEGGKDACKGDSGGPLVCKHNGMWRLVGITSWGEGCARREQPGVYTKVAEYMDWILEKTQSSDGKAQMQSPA
Sequence (P03952 20-390 partner limits assumed): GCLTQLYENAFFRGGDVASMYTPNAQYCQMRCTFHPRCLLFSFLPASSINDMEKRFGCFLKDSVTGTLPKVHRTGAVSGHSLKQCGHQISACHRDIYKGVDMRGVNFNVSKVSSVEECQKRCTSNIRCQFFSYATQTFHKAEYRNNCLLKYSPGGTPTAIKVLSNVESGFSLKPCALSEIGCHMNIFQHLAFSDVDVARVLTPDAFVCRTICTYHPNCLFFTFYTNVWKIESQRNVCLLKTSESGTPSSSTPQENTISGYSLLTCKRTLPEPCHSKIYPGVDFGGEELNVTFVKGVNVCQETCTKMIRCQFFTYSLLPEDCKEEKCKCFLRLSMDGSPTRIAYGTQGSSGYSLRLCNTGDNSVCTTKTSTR
Reported property: IC50 (nM)

Compound | Reported property | Observed
COCC1CN(c2ccc(CNC(=O)c3cnnc(N4CC[C@]5(C4)OC(=O)Nc4ccc(Cl)c(F)c45)c3)cn2)C1 [Example 27] | IC50 | 14.3
Cc1cnn(Cc2ccc(CNC(=O)c3cncc(N4CC[C@]5(C4)OC(=O)Nc4ccc(Cl)c(F)c45)n3)cc2)c1 [Example 18] | IC50 | 12.8
CCC(C)NCc1ccc(CNC(=O)c2cnnc(N3CC[C@]4(C3)OC(=O)Nc3ccc(Cl)c(F)c34)c2)cc1 (stereo partly shown) [Example 45] | IC50 | 15.8
Cc1cnn(Cc2ccc(CNC(=O)c3cc(N4CC[C@]5(C4)OC(=O)Nc4ccc(Cl)c(F)c45)ccn3)cc2)c1 [Example 25] | IC50 | 16.5
